# remaining binding at 1 µM per record follows
Target: ABL1(T315I)-nonphosphorylated (Homo sapiens, UniProt P00519, T315I)
Construct: purchased Eurofins DiscoverX KINOMEscan (scanTK)
Test: KINOMEscan ScanTK
Format: binding
Conditions: @1000nM, read-out: %Control
OUTCOME MEASURE: remaining binding at 1 µM (%)

* Cc1cnc(S(C)(=O)=O)nc1N1CCCC(n2nc(-c3ccc(Oc4ccccc4)cc3)c3c(N)ncnc32)C1 (stereo not drawn) | 82
* CNC(=O)c1cnc(S(C)(=O)=O)nc1N1CCCC(n2nc(-c3ccc(Oc4ccccc4)cc3)c3c(N)ncnc32)C1 (stereo not drawn) | 77
* C=CC(=O)N1CCC[C@@H](n2nc(-c3ccc(Oc4ccccc4)cc3)c3c(N)ncnc32)C1 [Compound 1g, Ibrutinib, reference compound] | 93

###

Target: EPHB2 (Homo sapiens)
Construct: purchased Eurofins DiscoverX KINOMEscan (scanTK)
Sequence (P29323 19-1055): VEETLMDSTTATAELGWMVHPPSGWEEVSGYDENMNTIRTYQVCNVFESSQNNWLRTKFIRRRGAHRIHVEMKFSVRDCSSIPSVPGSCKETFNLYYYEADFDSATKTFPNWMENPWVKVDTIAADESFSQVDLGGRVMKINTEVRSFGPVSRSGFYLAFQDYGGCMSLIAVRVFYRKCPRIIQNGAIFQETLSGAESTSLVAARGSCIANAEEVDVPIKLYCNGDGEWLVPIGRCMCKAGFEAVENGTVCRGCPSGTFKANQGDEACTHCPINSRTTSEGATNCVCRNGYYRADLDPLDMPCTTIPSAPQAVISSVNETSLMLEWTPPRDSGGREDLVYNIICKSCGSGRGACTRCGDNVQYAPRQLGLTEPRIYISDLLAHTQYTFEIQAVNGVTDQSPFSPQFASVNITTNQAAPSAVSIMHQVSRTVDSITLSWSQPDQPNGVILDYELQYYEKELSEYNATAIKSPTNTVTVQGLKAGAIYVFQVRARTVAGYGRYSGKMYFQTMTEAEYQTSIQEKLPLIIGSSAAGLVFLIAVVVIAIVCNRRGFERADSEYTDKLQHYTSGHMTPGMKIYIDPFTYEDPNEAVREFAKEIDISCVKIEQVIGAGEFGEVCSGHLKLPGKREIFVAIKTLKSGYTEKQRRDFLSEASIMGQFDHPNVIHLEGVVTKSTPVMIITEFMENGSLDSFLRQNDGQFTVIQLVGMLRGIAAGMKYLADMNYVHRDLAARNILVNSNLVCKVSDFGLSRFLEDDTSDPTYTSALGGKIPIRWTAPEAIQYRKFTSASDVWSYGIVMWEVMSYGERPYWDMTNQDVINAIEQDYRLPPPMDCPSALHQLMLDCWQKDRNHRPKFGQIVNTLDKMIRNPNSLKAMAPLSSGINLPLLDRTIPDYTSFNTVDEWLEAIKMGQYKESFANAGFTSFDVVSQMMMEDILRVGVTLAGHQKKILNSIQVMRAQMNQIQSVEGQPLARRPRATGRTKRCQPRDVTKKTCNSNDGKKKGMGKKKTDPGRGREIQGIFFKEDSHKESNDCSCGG
Experiment: KINOMEscan ScanTK
Type: binding
Details: @1000nM, read-out: %Control
OUTCOME MEASURE: remaining binding at 1 µM (%)

- CCOC(=O)c1cnc(S(C)(=O)=O)nc1N1CCC[C@@H](n2nc(-c3ccc(Oc4ccccc4)cc3)c3c(N)ncnc32)C1: 98
- Cc1cnc(S(C)(=O)=O)nc1N1CCCC(n2nc(-c3ccc(Oc4ccccc4)cc3)c3c(N)ncnc32)C1 (stereo not drawn): 84
- CNC(=O)c1cnc(S(C)(=O)=O)nc1N1CCCC(n2nc(-c3ccc(Oc4ccccc4)cc3)c3c(N)ncnc32)C1 (stereo not drawn): 99
